Entry source: the RNAGym collection of RNA variant scans (doi:10.7554/elife.80360)

B1: HDV Ribozyme (parent)
chain: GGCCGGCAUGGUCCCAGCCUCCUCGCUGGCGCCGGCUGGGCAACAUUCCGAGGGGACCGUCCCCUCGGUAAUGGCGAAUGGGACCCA

Variants of: B1
protocol-text: self-cleavage, relative activity (ratio to wild type); higher = more cleavage; co-transcriptional
Returns 1.0 if the recorded self-cleavage is greater than or equal to 0.3, and 0.0 otherwise.

INSERT INTO measurements (sequence_record, answer_label) VALUES
  ('GGCCGGCAUGGUCCCAGCCUCCUCGCUGUCGCCGGCUGGGCAACAUUCCGAGGGGACCGUCCCCUCGGUAAUGGCGAAUGGGAACCA', 0.0),
  ('GGCCGGCAUGGUCCUAGCCUCCUCGCUGGCGCCGGCUGGGCAACAUUCCGAGGGGACCGUCCCCUCGGUAAUGGCGAAUCGGACCCA', 0.0),
  ('GGCCGGCAUGGUCCCAGCCUCCUCGCUGGCGCCGGCUGGGCAACAUUCCGGGGGGACCGUCCCCUCGGUAAUGGCGAAUGGGAACCA', 1.0),
  ('GGCCGGCAUGGUACCAGCCUCCUCGCUGGCGCCGGCUGGGCAACAUUCCGAGGGGACCGUCCCCUCGGUAAUGGCGAAUUGGACCCA', 0.0),
  ('GGCCGGCAUGAUCCCAGCCUCCUCGCUUGCGCCGGCUGGGCAACAUUCCGAGGGGACCGUCCCCUCGGUAAUGGCGAAUGGGACCCA', 0.0),
  ('GGCCGGCAUGGUCCCAGCCUCCUCGCUGGCGCCGGCUGGGCCACAUUCCGAGGAGACCGUCCCCUCGGUAAUGGCGAAUGGGACCCA', 0.0),
  ('GGCCGGCAUGGUCCCAGCCUCCUCGCUGGCGCCGGCUGGGCAACAUUCCGAGCGGACCGUCCCCUCGGUAAUGGCCAAUGGGACCCA', 1.0),
  ('GGCCGGCAUGGUCCCAGCCUCCUCGUUGGCGCCGGCUGGGCAACAUGCCGAGGGGACCGUCCCCUCGGUAAUGGCGAAUGGGACCCA', 1.0),
  ('GGCCGGCAUGGUCCCAGCAUCCUCGCUGGCGCCGGCUGGGCAACAUUCCGAGGGGACCGUCCCCUCGGUAAUGGCGAAUGGGAACCA', 0.0),
  ('GGCCGGCGUGGUCCCAGCCUCCUCGCUGGCGCCGGCUGGGCAACAUUCCGAGGGGACCGUCCCCGCGGUAAUGGCGAAUGGGACCCA', 1.0),
  ('GGCCGGCAUGGUCCCAGCCUCCUCGCUGGCGUCGGCUGGGCAACAUUCCGAAGGGACCGUCCCCUCGGUAAUGGCGAAUGGGACCCA', 1.0),
  ('GGCCGGCAUGUUCCCAGCCUCCUCGCUGGCGCCGGCUGGGCAAAAUUCCGAGGGGACCGUCCCCUCGGUAAUGGCGAAUGGGACCCA', 0.0),
  ('GGCCGGCAUGUUCCCAGCCUCCUCGCUGGCGCCGGCUGGGCAACAUUUCGAGGGGACCGUCCCCUCGGUAAUGGCGAAUGGGACCCA', 1.0),
  ('GGCCGGCAUGGUCCCUGCCUCCUCGCUGGCCCCGGCUGGGCAACAUUCCGAGGGGACCGUCCCCUCGGUAAUGGCGAAUGGGACCCA', 0.0),
  ('GGCCGGCAUGGUCCCAGUCUCCUCGCUGGCGCCGGCUGGGCAACAUUCCGAGGGGACCGUCCCCUCGGUAAUGGCGAAUGUGACCCA', 0.0),
  ('GGCCGGCAUGGUCCCAGCCUCCUCGCUGGCGCCGGCUGGGCAACAUUCCGAGGGGACCGUCCACUCGGUAAUGGCGAAUGGGACCGA', 1.0),
  ('GGCCGGCAUGGUCCCAGCCUCAUCGCUGGCGCCGGCUGGGUAACAUUCCGAGGGGACCGUCCCCUCGGUAAUGGCGAAUGGGACCCA', 0.0),
  ('GACCGGCAUGGUCCCAGCCUCCUCGCUGGCGCCGGCUGGGCAACAUUCCGAGGGGACCGUCCCCUCGGUAAUGGCGAAUGGGAACCA', 0.0),
  ('GGCCGGCAUGGUCCCAGCCUCCCCGCUGGCGCCGGCUGGGCAACAUUCCGAGGGGACCGACCCCUCGGUAAUGGCGAAUGGGACCCA', 1.0),
  ('GGCCGGCAUGGUCCCAGCCUCCUCGCUGGCGCCGGCUAGGCAACAUUCCCAGGGGACCGUCCCCUCGGUAAUGGCGAAUGGGACCCA', 0.0),
  ('GGCCGGCAUGGUCCCAGCCUCCUCGCUGGCGCCGGCUGGGCAACAUUCCGAGGGGACGGUCCCCUCGGUCAUGGCGAAUGGGACCCA', 1.0);
